meta.source: a melting point compilation (Tetko et al.; mined from patent text by program, amines drawn as free bases though some values may be those of a salt)

Endpoint Name: melting point

Note to self: melting point recorded for Cc1cccc(COc2cccc(OCc3ccc4ccccc4n3)c2)c1C(=O)O was 167 to 168 °C

Note to self: melting point recorded for C=CCCC(C(=O)O)(C(=O)O)C(F)F was 80 to 81 °C

Note to self: melting point recorded for CCCCC(OC)c1c(C(C)C)nc(C(C)C)c(CO)c1-c1ccc(F)cc1 (stereo not given) was 121 to 123 °C

Note to self: melting point recorded for CC(=O)Oc1c(C(C)(C)C)cc2c(c1C(C)(C)C)C=CS2(=O)=O was 195 °C

Note to self: melting point recorded for CCC(C)Cc1ccc(C(=O)O)cc1Br (stereo not given) was 78.8 to 79.7 °C

Note to self: melting point recorded for CC(C)(C)c1cccc(C[C@H](N)[C@H](O)c2cccc(Cl)c2)c1 (racemic) was 102 to 103 °C

Now let's try a different one.
Note to self: melting point recorded for COc1ccc(C2c3c(C)c(NC(=O)CC(C)(C)C)c(C)c(C)c3OC2(C)C)cc1 (stereo not given) was 175 to 176 °C

* * *

Let's look at some molecules and their measured melting point.

Solved cases below.
Note to self: melting point recorded for O=C(O)c1cccc2cc(-c3ccccc3)oc12 was 212 to 214 °C

Note to self: melting point recorded for Cc1c(-c2cc(C(F)(F)F)cc(C(F)(F)F)c2)ccc2nc(N=CN(C)C)nc(N=CN(C)C)c12 was 208 to 210 °C

Note to self: melting point recorded for COC(=O)C1(C(=O)OC)CN(C(=O)OC(C)(C)C)c2cc([N+](=O)[O-])c3ccccc3c21 was 151 °C

Note to self: melting point recorded for BrC=C(c1ccccc1)c1ccccc1 was 45 °C

Note to self: melting point recorded for COc1ccccc1N1CCN(CCn2c(=O)[nH]c3sc(C)c(C)c3c2=O)CC1 was 196 to 197 °C

Now let's try a different one.
Note to self: melting point recorded for O=C(CC(=S)N1CCC[C@H]1C(=O)O)c1ccccc1 was 151 to 152 °C

* * *

Endpoint Name: melting point

Solved cases below.
Note to self: melting point recorded for O=[N+]([O-])c1cn(CC(I)=C(I)I)c(Cl)c1Cl was 126 to 127 °C

Note to self: melting point recorded for COc1ccc(C(=O)c2ccccc2)cc1Cl was 87 °C

Note to self: melting point recorded for O=C(C=Cc1cccnc1)NCCCOC1CCN(Cc2ccccc2)CC1 was 100 to 102 °C

Note to self: melting point recorded for CC(C#Cc1cccc(Oc2ccccc2)c1)N(O)C(N)=O (stereo not given) was 110 to 115 °C

Note to self: melting point recorded for O=[N+]([O-])c1ccc(Cl)c(C(=S)Nc2ccc(Oc3ncc(C(F)(F)F)cc3Cl)cc2)c1 was 186 to 187 °C

Note to self: melting point recorded for Cc1ccc2c(NN)ccnc2c1NC(=O)c1c(Cl)cccc1Cl was 202 to 204 °C

---
Note to self: melting point recorded for CC(C)S(=O)(=O)N1CCN(Cc2ccc(COc3cccc4c3CN(C3CCC(=O)NC3=O)C4=O)cc2)CC1 (stereo not given) was 233 to 235 °C

Note to self: melting point recorded for Cc1c(C(=O)O)oc2ccccc2c1=O was 192 to 193 °C

Note to self: melting point recorded for CC(C)(C)OC(=O)Nc1ccc(-c2ccccc2F)cc1NC(=O)CC(=O)c1cc(C#N)ccc1F was 170 °C

Note to self: melting point recorded for COc1cc(CCN2CCc3cc(O)ccc3C2)cc(OC)c1OC was 180 to 186 °C
